experiment: chemical genetic growth profiling, strain panel (AID 1159580);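 note: tested at 20 µM; growth read once vehicle control cultures reached saturation at 30 °C; 1 = growth at the plate median or of vehicle wells; lower values mean less growth of the strain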; conditions: S. cerevisiae deletion strains, growth OD, locus YGL227W, strain vid30, stronger effect = lower value
Out of some 5,500 compounds screened, about 2,000 (36%) were called active. About 18% were inconclusive and are not listed. Some of the results follow. Where a SMILES comes first, the peptide text is derived from it. Side-chain parts run from the residue outwards. [ ]: non-standard residue; d: D form. The star is where a group is joined. X1 = CCC(C)C(N)C1=NC(C(=O)*)CS1; Orn = NCCC[CH](N)C(=O)O
Please go through the items and note down their normalized growth.
Give bare numbers.

Use these answered entries as a reference point.
CCOc1cccc(C(=O)c2ccc(O)c(O)c2O)c1 ... 0.984
O=c1[nH]cnc2c1ncn2C1O[C@H](CO)[C@@H](O)[C@H]1O (stereo partly drawn) ... 0.98

Okay, now this compound:
Given item CCC(C)C(N)C1=NC(C(=O)NC(CC(C)C)C(=O)NC(CCC(=O)O)C(=O)NC(C(=O)NCCCCC2NC(=O)C(CC(N)=O)NC(=O)C(CC(=O)O)NC(=O)C(Cc3cnc[nH]3)NC(=O)C(Cc3ccccc3)NC(=O)C(C(C)CC)NC(=O)C(CCCN)NC2=O)C(C)CC)CS1 (stereo not drawn) (cyclo(DNK([Ile-Glu-Leu-X1])[Orn]IFH); configuration not given here) , the value recorded as its normalized growth is 1

###

assay: chemical genetic growth profiling, strain panel (AID 1159580);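 note: tested at 20 µM; growth read once vehicle control cultures reached saturation at 30 °C; 1 = growth at the plate median or of vehicle wells; lower values mean less growth of the strain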; conditions: S. cerevisiae deletion strains, growth OD, locus YEL003W, strain gim4
Hit rate of the full screen: of about 5,500 compounds, about 2,000 (36%) were called active. About 18% were inconclusive and are not listed. Cut-off read from the data, not from the text of the source: active = normalized growth mostly below about 0.91 (no sharp cut-off); inconclusive = no clear call, values can overlap the other calls; inactive = mostly above about 0.92. The list shows a part of the results.
// allowed return values: active, inactive

CCc1cccc2c3c([nH]c12)C(CC)(CC(=O)O)OCC3 (stereo unspecified) ... inactive
OCc1c[nH]c2ccccc12 ... active
CC(=O)N[C@@H](Cc1c[nH]c2ccccc12)C(=O)O ... inactive
C=C(C)[C@H]1Cc2c(ccc3c2O[C@@H]2COc4cc(OC)c(OC)cc4[C@@H]2C3=O)O1 ... inactive
c1ccc2c(Cc3c[nH]c4ccccc34)c[nH]c2c1 ... active

Continue with the next molecule.
Query: Given CCCCc1nc(Cl)c(CO)n1Cc1ccc(-c2ccccc2-c2nn[nH]n2)cc1 , state the outcome it received in this test.
Response: inactive

###

assay: chemical genetic growth profiling, strain panel (AID 1159580);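 note: tested at 20 µM; growth read once vehicle control cultures reached saturation at 30 °C; 1 = growth at the plate median or of vehicle wells; lower values mean less growth of the strain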; conditions: S. cerevisiae deletion strains, growth OD, locus YNL298W, strain CLA4 (second series), stronger effect = lower value
Among all 5,500 compounds or so, about 2,000 (36%) were called active. Roughly 18% stayed inconclusive and do not appear here. The list shows a part of the results.
Decision: normalized growth beneath 1 gives 1 (yes); normalized growth meeting or exceeding 1 gives 0 (no).

Answered cases to consult:
Cc1cccc(C(=O)c2ccccc2C(=O)O)c1 ... 0 (no)
Cc1ccc(N=Nc2c(C)[nH]n(C)c2=O)cc1 ... 1 (yes)
COc1cccc(NC(N)=S)c1 ... 0 (no)
Cn1c(=O)c(-c2ccccc2)c(O)c2ccccc21 ... 1 (yes)

Query: Given the entry CC(=O)C1C(=O)CC(c2ccc(Cl)cc2)CC1=O (stereo not given) , would its reported normalized growth be below 1?
Response: 1 (yes)

Query: Given the entry NC(=S)c1ccc(Oc2ccc(Cl)cc2)nc1 , would its reported normalized growth be below 1?
Response: 1 (yes)

Query: Given the entry O=C1CC2(CCCC2)C(=O)N1CCNc1nccc(C(F)(F)F)n1 , would its reported normalized growth be below 1?
Response: 1 (yes)
